Test system: UO-31
METHOD: NCI tumour cell line growth inhibition, 48 h
The source made the active and inactive calls. No stated cut-off is given here; in the data, active = GI50 up to about 1.1 µM and inactive = higher.
Parameter: GI50. Scope: all listed entries.
ASSAY ENDPOINT: GI50

1. OC1OC(c2ccc[nH]2)C(F)(F)C(F)(F)C1(F)F (stereo unspecified)    97.7 µM (inactive)
2. CC1(O)CCC2(C#N)CCC1C2O (stereo unspecified)    > 100 µM (inactive)
3. c1ccc(CC2COC(c3cccs3)=N2)cc1 (stereo unspecified)    64.1 µM (inactive)
4. Cc1ccc2c(c1)C(C(=O)N[C@@H]1C(=O)N3[C@@H]1SC(C)(C)[C@@H]3C(=O)O)OCCC2 (stereo partly specified)    > 100 µM (inactive)
5. Cc1ccccc1-n1c(C)nc(-c2ccccc2)cc1=O    > 100 µM (inactive)
6. CCc1cc2c(Nc3ccccc3)c3c(nc2s1)CCCC3    3.99 µM (inactive)
7. CCOC(=O)c1c(NC(=O)c2cccs2)sc2c1CCC2    > 100 µM (inactive)
8. OCCCc1cc(O)c2c(c1)C(CO)C(c1ccc(O)c(O)c1)O2 (stereo unspecified)    > 100 µM (inactive)
9. CCCc1nn(C)c(CCC(=O)N(Cc2ccccc2)Cc2ccccc2)c1CC    > 100 µM (inactive)
10. O=c1cc(-c2ccccc2)oc2cc(O)cc(O)c12 [CHRYSIN]    20.4 µM (inactive)
11. CC[N+]1(C)CCC(O)(/C=C/c2ccccc2)C(C(=O)/C=C/c2ccccc2)C1 (stereo unspecified)    15.6 µM (inactive)

----------
Tested on: OVCAR-8
METHOD: NCI tumour cell line growth inhibition, 48 h
Active and inactive are the calls of the source. Cut-off read from the data, not from the text of the source: active = GI50 up to about 1.1 µM and inactive = higher.
ASSAY ENDPOINT: GI50

1) Cc1ccc(S(=O)(=O)NC(=O)C2(Br)S(=O)(=O)OCCOS2(=O)=O)cc1    > 100 µM (inactive)
2) O=C(N/N=C(COc1ccc(Cl)cc1)\N=C\c1cccnc1)c1ccncc1    89.1 µM (inactive)
3) COc1cc(-c2ccc(/N=N/c3c(S(=O)(=O)O)cc4cc(S(=O)(=O)O)cc(N)c4c3O)c(OC)c2)ccc1/N=N/c1c(S(=O)(=O)O)cc2cc(S(=O)(=O)O)cc(N)c2c1O    > 100 µM (inactive)
4) N#Cc1nc(Sc2cnsn2)c(Sc2cnsn2)nc1C#N    24.5 µM (inactive)

----------
Tested on: SK-MEL-28
METHOD: NCI tumour cell line growth inhibition, 48 h
Activity calls are given as the source filed them. No stated cut-off is given here; in the data, active = GI50 up to about 1.1 µM and inactive = higher.
ASSAY ENDPOINT: GI50

1) Cc1ccc(C2SC(=N)Nc3c2c(C)nn3C(=O)c2ccncc2)cc1 (centres undefined)    > 10 µM (inactive)
2) NC(CSc1nc2ccccn2c1[N+](=O)[O-])C(=O)O (centres undefined)    > 100 µM (inactive)
3) CNS(=O)(=O)NNS(=O)(=O)c1ccc2ccccc2c1    > 100 µM (inactive)
4) CN(C)CCNS(=O)(=O)N(C)C    > 100 µM (inactive)

----------
Test system: OVCAR-3
METHOD: NCI tumour cell line growth inhibition, 48 h
The source made the active and inactive calls. Rule as the data show it: active = GI50 up to about 1.1 µM and inactive = higher.
Outcomes: 1 = active, 0 = inactive

1. O=C1Nc2ccccc2/C1=N/NC(=S)Nc1ccccc1Cl    0
2. COc1ccc(S(=O)(=O)N2C(=O)CCC2C(=O)NC(N)=O)cc1 (stereo not given)    0
3. CC(=O)Nc1ccccc1-c1nc2ccccc2nc1C    0
4. COC1OC(C(=O)O)C2OC(C)(C)OC12 (stereo not given)    0
5. O=C(N/N=C(COc1ccc(Cl)cc1)\N=C\c1cccnc1)c1ccncc1    0
6. O=C(O)CS(=O)(=O)C(c1ccccc1)c1ccccc1    0
7. CN1CCc2cc(N)cc3c2C1Cc1ccc2c(c1-3)OCO2 (stereo not given)    0
8. COc1cc(-c2ccc(/N=N/c3c(S(=O)(=O)O)cc4cc(S(=O)(=O)O)cc(N)c4c3O)c(OC)c2)ccc1/N=N/c1c(S(=O)(=O)O)cc2cc(S(=O)(=O)O)cc(N)c2c1O    0
9. CC(=O)C(/N=N\C1CCC(S(=O)(=O)NB2N=CS2)CC1)C(=O)Nc1ccccc1C (stereo not given)    0
10. CCCCCC/C=C\CCCCCCCCCc1cccc(O)c1C(=O)O [GINKGOLIC ACID 17:1]    0
11. Nc1nn2c(=O)c3ccccc3nc2s1    0
12. N#Cc1nc(Sc2cnsn2)c(Sc2cnsn2)nc1C#N    0
13. CC1=NN(c2cccc(Cl)c2)C(=N/c2nc3ccccc3s2)/C1=C\c1ccccc1O    0
14. O=C1CC(Cl)c2c(Cl)sc(Cl)c21 (stereo not given)    0
15. Cc1c(N2CCN(C)CC2)nc2ccc(Cl)cc2c1-c1ccccc1    0
16. COc1ccc(/C=C2/NC(=S)N=C2Cl)cc1    0
17. N#C/C(=C\c1ccc(C(O)P(=O)(O)O)cc1)C(N)=O (stereo not given)    0
18. CNC1=CC(=O)C2=C(C1=O)[C@H]1CC[C@]3(C)C(=O)CC[C@H]3[C@@H]1CC2    0
19. Cc1cn(CCCCCOC(=O)NC(CCCNC(N)=O)C(=O)O)c(=O)[nH]c1=O (stereo not given)    0
20. Cc1cc(S(N)(=O)=O)c(S/C(=N\Nc2ccc([N+](=O)[O-])cc2)c2ccc(Cl)cc2)cc1Cl    0
21. COC(=O)c1ccccc1/N=C/c1ccc(N(CCC#N)S(=O)(=O)c2ccccc2)cc1    0
22. COc1cc[n+](C)cc1    0
23. CCOC(=O)c1c(NC(=O)c2cccs2)sc2c1CCC2    0
24. C/C=C(/C)C(=O)O[C@H](C[C@@H](C)[C@H]1CC(c2ccoc2)OC1=O)[C@@]1(C)C(=O)CCC2O[C@]21C (stereo not given in full)    0
25. OCCCc1ccc2c(c1)[C@H](CO)[C@@H](c1ccc(O)cc1)O2    0
26. CC1=Nc2c(C#N)ncn2N=C(C)C1    0
27. Nc1ncn(C2OC(COP(=O)(O)O)C(O)C2O)c(=O)n1 (stereo not given)    0
28. CC(=O)n1nc(-c2[nH]c(C)c(-c3nn(C(C)=O)c(=S)o3)c2C)oc1=S    0
29. O=S(=O)(/N=S(/Nc1ccccc1)C(F)(F)Cl)c1ccccc1 (stereo not given)    0
30. C=CCN1C(=O)/C(=C/c2ccccc2)N=C1SC1OC(COC(C)=O)C(OC(C)=O)C(OC(C)=O)C1OC(C)=O (stereo not given)    0
31. COc1cc(CC2c3cc(OC)c(OC)cc3CCN2C)c(Oc2cc3c(cc2OC)-c2c(O)c(OC)cc4c2C(C3)N(C)CC4)cc1OC (stereo not given)    0
32. COC(=O)/C=C(\C)CC/C=C(\C)CCC(O)C(C)(C)O (stereo not given)    0
33. C[C@@H]1CC[C@H]2C(C)(C)[C@H]3C[C@@]12CC[C@@]3(C)O [CEDROL]    0
34. S=C1c2ccccc2N=C(NC2CCCC2)C2CSCN12 (stereo not given)    0
35. CCOC(=O)CCC(NC(=O)c1ccc(Nc2nc3ccc(C(F)(F)F)cc3nc2-c2ccccc2)cc1)C(=O)OCC (stereo not given)    0
36. O=C(Nc1cccc(C(F)(F)F)c1)O/N=C(/Cl)CCl    0
37. CN1C(=O)C(Cl)(C(Cl)(Cl)S(=O)(=O)O)C(=O)c2ccccc21.c1ccncc1 (stereo not given)    0
38. O=C1C(Cl)=C(Nc2ccc(OC(F)(F)F)cc2)C(=O)c2c(O)ccc(O)c21    1
39. COC1O[C@@H]2CCN3C(=O)[C@@H](OC(=O)c4ccc([N+](=O)[O-])cc4)[C@H]1C23 (stereo not given in full)    0
40. C=CCOC(=O)N1c2ccc(O[Si](C)(C)C(C)(C)C)cc2[C@@]23O[C@@]24[C@@H]1C#C/C=C\C#C[C@]3(O)C(OC)(OC)C[C@@H]4C    0

----------
System: IGROV-1
METHOD: NCI tumour cell line growth inhibition, 48 h
Calls of active or inactive are those of the source. Cut-off read from the data, not from the text of the source: active = GI50 up to about 1.1 µM and inactive = higher.
Outcomes: yes (active), no (inactive)

1) O=C(O)CSC(CC(=O)c1ccc(Cl)cc1)c1ccc(Cl)cc1 (centres undefined)    no
2) c1ccc(CC2COC(c3cccs3)=N2)cc1 (centres undefined)    no
3) O=S(=O)(NCn1ccc2ccccc21)c1ccccc1    no
4) COC(=O)/C=C/N1CC1    no
5) CCOC(=O)c1nnn(CCCCO)c1C(=O)OCC    no
6) CS(=O)(=O)OCCn1c(=O)n(CCOS(C)(=O)=O)c(=O)n(CCOS(C)(=O)=O)c1=O    no
7) COc1cc(CN2CCCCC2)cc2cc(C(=O)O)c(=O)oc12    no
8) OC1OC(c2ccc[nH]2)C(F)(F)C(F)(F)C1(F)F (centres undefined)    no
9) CC1(C)N=C(N)N=C(N)N1CCCCc1ccccc1    yes

Source listed as ChEMBL document CHEMBL1201862.
